Attribute: drug-induced phospholipidosis
# Tested on: A549-ACE2
# testDescription: drug-induced phospholipidosis relative to tamoxifen; higher = more phospholipidosis
# measurementConditions: 3.33333 µM; 48 h

chemSmiles: COc1cc(-n2cnc3cc(-c4ccc(Cl)cc4)sc3c2=O)ccc1OCCN1CCCC1
scaleUnit: %
drug-induced phospholipidosis: 14.3
--
chemSmiles: CC(=O)[O-].CC(=O)[O-].N.NC1CCCCC1.[Cl-].[Cl-].[Pt+4]
scaleUnit: %
drug-induced phospholipidosis: -0.57
--
chemSmiles: NC1(c2ccc(-c3nc4ccn5c(=O)[nH]nc5c4cc3-c3ccccc3)cc2)CCC1
scaleUnit: %
drug-induced phospholipidosis: 89
--
chemSmiles: Cc1cccc(/C=N/Nc2cc(N3CCOCC3)n3nc(-c4ccncc4)cc3n2)c1
scaleUnit: %
drug-induced phospholipidosis: 47.8
--
chemSmiles: Cc1ccc(-n2nc(C(C)(C)C)cc2NC(=O)Nc2ccc(OCCN3CCOCC3)c3ccccc23)cc1
scaleUnit: %
drug-induced phospholipidosis: -1.1
--
chemSmiles: CCN(CC)CCO[C@H]1CC[C@@]2(C)C(=CC[C@@H]3[C@@H]2CC[C@]2(C)C(=O)CC[C@@H]32)C1
scaleUnit: %
drug-induced phospholipidosis: 111
--
chemSmiles: OC1=c2ccccc2=C(NC2CCCCC2)/C1=C\c1ccccc1
scaleUnit: %
drug-induced phospholipidosis: 6.41
